# Target Under Test: GR (Homo sapiens, UniProt P04150)
# Measurement Protocol: In Vitro GR Luciferase Reporter Assay (antagonist assay)
# Condition: CHO-K1-GR-MMTV-Luc reporter cells, 10 nM Dexamethasone, 18-24 hours
Property Label: IC50

Given the compound `CC#C[C@]1(O)CC[C@H]2[C@@H]3CCC4=CC(=O)CCC4=C3[C@@H](c3c(F)cc(N4CCOCC4)cc3F)C[C@@]21C` , what is its reported IC50?
< 100 nM

// next record `CC#C[C@]1(O)CC[C@H]2[C@@H]3CCC4=CC(=O)CCC4=C3[C@@H](c3cccc(COC)c3)C[C@@]21C`
< 100 nM

// next record `CC#C[C@]1(OC(C)=O)CC[C@H]2[C@@H]3CCC4=CC(=O)CCC4=C3[C@@H](c3cc(F)c(C)c(F)c3)C[C@@]21C`
< 100 nM

// below: IC50 requested for another compound
Given the compound `CC#C[C@]1(O)CC[C@H]2[C@@H]3CCC4=CC(=O)CCC4=C3[C@@H](c3ccc(F)c(N(C)C)c3)C[C@@]21C` , what is its reported IC50?
> 100 nM

====

# Target Under Test: GR (Homo sapiens, UniProt P04150)
# Measurement Protocol: In Vitro GR Luciferase Reporter Assay (antagonist assay)
# Condition: CHO-K1-GR-MMTV-Luc reporter cells, 10 nM Dexamethasone, 18-24 hours
# IC50 listing for each entry below

Previously resolved entries follow.
Given the compound CC#C[C@]1(O)CC[C@H]2[C@@H]3CCC4=CC(=O)CCC4=C3[C@@H](c3ccc(F)c(C#N)c3)C[C@@]21C [drawing 199] , what is its reported IC50?
< 100 nM

// next record `CC#C[C@]1(O)[C@H](C)C[C@H]2[C@@H]3CCC4=CC(=O)CCC4=C3[C@@H](c3cc(F)c(C)c(F)c3)C[C@@]21C`
> 100 nM

// next record CC#C[C@]1(O)[C@H](CC)C[C@H]2[C@@H]3CCC4=CC(=O)CCC4=C3[C@@H](c3ccc(N(C)C)cc3)C[C@@]21C [drawing 225]
< 100 nM

More entries:
Given the compound CC#C[C@]1(O)CC[C@H]2[C@@H]3CCC4=CC(=O)CCC4=C3[C@@H](c3ccc(C(C)C)c(N(C)C)c3)C[C@@]21C [drawing 201] , what is its reported IC50?
< 100 nM

// next record CC#C[C@]1(O)CC[C@H]2[C@@H]3CCC4=CC(=O)CCC4=C3[C@@H](c3ccc(Cl)c(C(C)C)c3)C[C@@]21C [drawing 200]
< 100 nM

// next record `CC#C[C@]1(O)CC[C@H]2[C@@H]3CCC4=CC(=O)CCC4=C3[C@@H](c3c(F)cc(C)cc3F)C[C@@]21C`
< 100 nM

====

# IC50 listing for each entry below
# Target Under Test: GR (Homo sapiens, UniProt P04150)
# Sequence (P04150 1-777): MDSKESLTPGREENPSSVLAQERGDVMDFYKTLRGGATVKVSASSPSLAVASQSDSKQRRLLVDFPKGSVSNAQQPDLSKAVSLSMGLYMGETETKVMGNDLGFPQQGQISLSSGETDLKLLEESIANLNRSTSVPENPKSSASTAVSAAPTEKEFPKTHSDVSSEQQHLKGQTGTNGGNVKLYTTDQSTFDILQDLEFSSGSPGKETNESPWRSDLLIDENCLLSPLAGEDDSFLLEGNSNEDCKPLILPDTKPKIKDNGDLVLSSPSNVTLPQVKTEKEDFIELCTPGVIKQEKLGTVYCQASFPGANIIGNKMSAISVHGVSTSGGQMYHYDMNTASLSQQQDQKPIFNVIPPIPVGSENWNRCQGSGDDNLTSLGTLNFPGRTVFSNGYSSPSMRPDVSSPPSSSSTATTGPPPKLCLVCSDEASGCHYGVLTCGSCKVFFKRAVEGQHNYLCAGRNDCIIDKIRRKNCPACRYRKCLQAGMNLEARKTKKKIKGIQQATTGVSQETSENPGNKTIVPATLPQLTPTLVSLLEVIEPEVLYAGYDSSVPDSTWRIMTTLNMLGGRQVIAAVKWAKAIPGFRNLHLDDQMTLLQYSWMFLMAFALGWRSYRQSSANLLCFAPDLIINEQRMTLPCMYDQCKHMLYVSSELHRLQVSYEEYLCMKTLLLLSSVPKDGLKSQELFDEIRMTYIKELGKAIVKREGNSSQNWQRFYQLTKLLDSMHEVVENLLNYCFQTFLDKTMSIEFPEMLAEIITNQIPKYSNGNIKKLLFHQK
# Measurement Protocol: In Vitro GR Luciferase Reporter Assay (antagonist assay)
# Condition: CHO-K1-GR-MMTV-Luc reporter cells, 10 nM Dexamethasone, 18-24 hours

Given the compound `CC#C[C@]1(O)[C@H](C)C[C@H]2[C@@H]3CCC4=CC(=O)CCC4=C3[C@@H](c3ccc(S(=O)(=O)C(C)(C)C)cc3)C[C@@]21C` , what is its reported IC50?
> 100 nM

// next record `CC#C[C@]1(O)CC[C@H]2[C@@H]3CCC4=CC(=O)CCC4=C3[C@@H](c3ccc(NS(=O)(=O)c4ccc(C)cc4)cc3)C[C@@]21C`
> 100 nM

// next record CC#C[C@]1(O)[C@H](C)C[C@H]2[C@@H]3CCC4=CC(=O)CCC4=C3[C@@H](c3ccc(N4CCOC[C@H]4C)cc3)C[C@@]21C [drawing 227]
< 100 nM

// next record `CC#C[C@]1(O)CC[C@H]2[C@@H]3CCC4=CC(=O)CCC4=C3[C@@H](c3ccc4c(c3)OCCCO4)C[C@@]21C`
< 100 nM

// next record CC#C[C@]1(O)CC[C@H]2[C@@H]3CCC4=CC(=O)CCC4=C3[C@@H](c3ccc(S(=O)(=O)C(C)(C)C)cc3)C[C@@]21C [drawing 182]
< 100 nM

// next record `CC#C[C@]1(O)CC[C@H]2[C@@H]3CCC4=CC(=O)CCC4=C3[C@@H](c3cc(C)c(N(C)C)c(F)c3)C[C@@]21C`
< 100 nM

// next record CC#C[C@]1(O)CC[C@H]2[C@@H]3CCC4=CC(=O)CCC4=C3[C@@H](c3cc(F)c(C)c(F)c3)C[C@@]21C [drawing 209]
< 100 nM

// next record `CC#C[C@]1(O)CC[C@H]2[C@@H]3CCC4=CC(=O)CCC4=C3[C@@H](c3ccc(Cl)c(N(C)C)c3)C[C@@]21C`
> 100 nM

// next record `CC#C[C@]1(O)[C@H](C)C[C@H]2[C@@H]3CCC4=CC(=O)CCC4=C3[C@@H](c3ccc(S(=O)(=O)N(C)C)cc3)C[C@@]21C`
< 100 nM

// next record `CC#C[C@]1(O)CC[C@H]2[C@@H]3CCC4=CC(=O)CCC4=C3[C@@H](c3ccc(OC)c(C(C)C)c3)C[C@@]21C`
< 100 nM

More entries:
Given the compound `CC#C[C@]1(O)CC[C@H]2[C@@H]3CCC4=CC(=O)CCC4=C3[C@@H](c3cccc(C4CC4)c3)C[C@@]21C` , what is its reported IC50?
< 100 nM

// next record `CC#C[C@]1(O)CC[C@H]2[C@@H]3CCC4=CC(=O)CCC4=C3[C@@H](c3ccc(C)c(N4CCC4)c3)C[C@@]21C`
> 100 nM

// next record `CC#C[C@]1(O)CC[C@H]2[C@@H]3CCC4=CC(=O)CCC4=C3[C@@H](c3ccc(C)c(OC)c3)C[C@@]21C`
< 100 nM

// next record `CC#C[C@]1(O)CC[C@H]2[C@@H]3CCC4=CC(=O)CCC4=C3[C@@H](c3ccc(C)c(F)c3)C[C@@]21C`
< 100 nM

// next record `CC#C[C@]1(O)CC[C@H]2[C@@H]3CCC4=CC(=O)CCC4=C3[C@@H](c3cc(F)c(N(C)C)cc3F)C[C@@]21C`
< 100 nM
